Target: T1, human GIPR (human), P48546
T1 chain: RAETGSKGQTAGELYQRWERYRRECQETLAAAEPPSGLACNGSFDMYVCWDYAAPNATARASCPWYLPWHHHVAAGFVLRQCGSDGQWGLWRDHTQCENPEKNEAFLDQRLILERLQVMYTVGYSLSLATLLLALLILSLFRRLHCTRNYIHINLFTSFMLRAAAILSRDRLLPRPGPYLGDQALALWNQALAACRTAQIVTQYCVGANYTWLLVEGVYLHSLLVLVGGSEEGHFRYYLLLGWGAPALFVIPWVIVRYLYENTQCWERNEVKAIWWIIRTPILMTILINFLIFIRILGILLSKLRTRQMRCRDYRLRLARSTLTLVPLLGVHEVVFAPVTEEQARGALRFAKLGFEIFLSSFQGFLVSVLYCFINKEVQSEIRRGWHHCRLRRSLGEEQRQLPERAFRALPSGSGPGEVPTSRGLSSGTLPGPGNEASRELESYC
Assay: [125I]GIP displacement, hGIPR VLP
Non-standard residues stand in square brackets, D forms with d. Groups on a side chain read outwards from the residue. Primed or numbered codes have the meaning given here. No end group written: not given here. *: point of attachment. C20 diacid = O=C(O)CCCCCCCCCCCCCCCCCCC(=O)*; dIva = CC[C@@](C)(N)C(=O)O; Iva = CC[C@](C)(N)C(=O)O; Aib = CC(C)(N)C(=O)O
Here, each record is paired with measured pIC50 data.
Conceptually, pIC50 converts a concentration in mol/L into minus its log10.

Record excerpt, results attached:
Binder	pIC50
Y[Aib]EGTFISDYSK([PEG(2)-Ac])ALDRIHQQDFVNWLLAQRPSSGAPPPS (ends and bridges not checked) [Compound 173]	8.15
Y[Aib]EGTVVSLYSK([Gly-Gly-Gly-Gly-C20 diacid])[Aib]LDRQAQ[Aib]EFVK(Ac)WLLAQR (ends and bridges not checked) [Compound 260]	7.82
Ac-Y[Aib]EGTFISDYSI[dIva]LDRIAQ[Aib]NFVNW[Iva]LAQRPSSGAPPPSR (ends and bridges not checked) [Compound 152]	8.68

Query block: Item Y[Aib]EGTFISDYSIALDRK([PEG(2)-dodec])HQQDFVNWLLAQRPSSGAPPPS (not fully specified (C-terminus); ends and bridges not checked) [Compound 232] has what recorded pIC50?
Result block: 8.68
